Tested on: OVCAR-8
Measurement Description: NCI tumour cell line growth inhibition, 48 h
Calls of active or inactive are those of the source. Cut-off read from the data, not from the text of the source: active = GI50 up to about 1.1 µM and inactive = higher.
One label from this list, please: true for active, false for inactive

> print(dat)
                                   compound  target.or.test.system  class.assignment
1     O=Cc1ccc2c(c1-c1c(C=O)ccc3c1OCO3)OCO2                OVCAR-8             false
2        COc1ccccc1-c1cc(=O)c2ccccc2n1C1CC1                OVCAR-8             false
3       CCCCc1ccc(Nc2nc(SC)c3[nH]cnc3n2)cc1                OVCAR-8             false
4  COc1cc(/C=c2/c3ccccc3n3c2cc(-c2ccccc2)[n+]3C)cc(OC)c1OC                OVCAR-8             false
5  CCOc1cc2c(cc1OC(C)=O)C(=O)CC[C@H]1C3CC[C@H](OC(C)=O)[C@@]3(C)CC[C@H]21 (some centres undefined)                OVCAR-8             false
6  O=C(OCc1ccccc1)N1CCN(C(=O)OCc2ccccc2)CCN(C(=O)OCc2ccccc2)CCN(C(=O)OCc2ccccc2)CCN(C(=O)OCc2ccccc2)CC1                OVCAR-8             false

Ask | State the result this test recorded for c1ccc(SC23C4C5C6C4C2C6C53)nc1 (centres undefined) .
Reply | false

Ask | Entry to check: `O=C1OCc2cccc3c2-c2c1cccc2C(=O)OC3`
Reply | false

Ask | Request: `C=C(C)[C@@H]1CC[C@]2(C)CC[C@]3(C)[C@H](CC[C@@H]4[C@@]5(C)CC[C@H](OC(=O)c6ccccc6)C(C)(C)[C@@H]5CC[C@]43C)[C@@H]12`
Reply | false

Ask | Similarly, `CC(C)C(=O)[C@@]1(C)SC[C@H]2CCN=C21` ?
Reply | false

Ask | What about `Cc1ccc(NC(=O)CCc2n[nH]c(=S)o2)cc1` ?
Reply | false

Ask | Another compound: `CNC1=Nc2ccc(Cl)cc2C(OP(=O)(N2CCOCC2)N2CCOCC2)=NC1`
Reply | false

Ask | Another compound to look at: C=C1C[C@]23CC[C@@H]4C(CO)(CO)CC(=O)C[C@]4(C)[C@@H]2C(O)C[C@H]1C3 (some centres undefined)
Reply | false

Ask | Now give it for `Cc1ccc2nc(-n3c(/C=C/c4ccccc4O)nc4ccccc4c3=O)sc2c1` too.
Reply | false

---

Catalogue of GI50 values
Test system: LXFL 529
Measurement Description: NCI tumour cell line growth inhibition, 48 h
Active and inactive are the calls of the source. Rule as the data show it: active = GI50 up to about 1.1 µM and inactive = higher.

Worked set:
Compound	Target Or Test System	Result
CC(C)(O)[C@@H]1CCC(C)([C@H]2[C@@H](O)CC3(C)C4CC(OC5OC(CO)C(O)C(O)C5O)C5C(C)(C)[C@@H](OC6OCC(O)C(O)C6O)CC[C@@]56C[C@@]46CC[C@]23C)O1 (stereo partly specified)	LXFL 529	> 100 µM (inactive)
CC(C)(C)OC(=O)c1cccnc1/C=N/O	LXFL 529	> 100 µM (inactive)
COCC(OC)C(CC=C(C#N)C#N)OC (stereo unspecified)	LXFL 529	> 100 µM (inactive)
CCOC(=O)C1=C(c2ccccc2)NC(c2ccccc2)=C(C(=O)OCC)c2c1c(=O)cc[nH]c2=O	LXFL 529	> 100 µM (inactive)
CCCCCCCCCCCC(=O)OC[C@@H](C[As](=O)(O)O)OC(=O)CCCCCCCCCCC	LXFL 529	5.45 µM (inactive)
Cc1ccccc1NC(=O)C(=O)C(C1OC(=O)c2ccccc21)[N+](=O)[O-] (stereo unspecified)	LXFL 529	> 100 µM (inactive)
C#CCC(N)(CO)C(=O)O (stereo unspecified)	LXFL 529	> 100 µM (inactive)
CC1(Br)CC2OC3(Br)C=CC(C)(O)C2(CC1=O)C3(C)C (stereo unspecified)	LXFL 529	98.9 µM (inactive)
COC(=O)[C@H]1C=C[C@@H](C)n2c(=O)c3ccccc3c(=O)n21	LXFL 529	> 100 µM (inactive)
CCN(CC)c1ccc(/N=N/c2ccc(-c3nc4cccnc4s3)cc2)cc1	LXFL 529	> 100 µM (inactive)

Ask | Which value of GI50 has been reported for `CCCCCN(CCCCC)C(=O)[C@@H](CCC(=O)OCc1ccccc1)NC(=O)c1cc2ccccc2[nH]1` in the records?
Reply | 8.85 µM (inactive)

Ask | Another compound: OC12CCCCCC1(N1CCOCC1)c1ccccc12 (stereo unspecified)
Reply | > 100 µM (inactive)

Ask | Try this compound too: `CCOC(=O)C1(C(=O)OCC)OC(=O)NC2=C1CCCC2`
Reply | > 100 µM (inactive)

Ask | Okay, and CC1SC2=NC3=C(c4ccccc4C3=O)C(c3ccc(Br)cc3)N2C1=O (stereo unspecified) ?
Reply | 53 µM (inactive)

Ask | Also, `CCOC(=O)NC(=O)c1cn(CCCOC(=O)NCCCCCCNC(=O)OCCCn2cc(C(=O)NC(=O)OCC)c(=O)[nH]c2=O)c(=O)[nH]c1=O` please.
Reply | 57.4 µM (inactive)

Ask | Check `Cn1c(=O)nc2n(-c3cccc(Br)c3)c3ccccc3nc-2c1=O` too.
Reply | 6.1 µM (inactive)

Ask | Next up: `CN(C)C(=S)Nc1nnc(Nc2ccccc2)s1`
Reply | > 100 µM (inactive)

Ask | What about `Cc1ccc(C(=O)C(C2=Nc3nnc(N)n3C2=O)C2=Nc3nnc(N)n3C2=O)cc1` ?
Reply | > 100 µM (inactive)

Ask | Moving on to the next compound: `CC1=NN(C(=O)c2ccc(Cl)cc2)C(=O)/C1=C/c1c(O)cc(O)c2ccccc12`
Reply | > 100 µM (inactive)

Ask | Field entry: `Cn1c(=O)c(C(=O)NC(=O)NCCCCCOC(=O)CCCCCCCCCCC(=O)OCCCCCNC(=O)NC(=O)c2cn(Cc3ccccc3)c(=O)n(C)c2=O)cn(Cc2ccccc2)c1=O`
Reply | > 100 µM (inactive)

Ask | Please answer likewise for `CN(C)CC/C(=N\Nc1ccc(Cl)cc1Cl)c1ccccc1`
Reply | 13.2 µM (inactive)

All figures here come from ChEMBL document CHEMBL1201862.
